Biological target: Pyruvate kinase PKM (Homo sapiens) (UniProt P14618)
Sequence (P14618 whole entry, looked up, canonical isoform): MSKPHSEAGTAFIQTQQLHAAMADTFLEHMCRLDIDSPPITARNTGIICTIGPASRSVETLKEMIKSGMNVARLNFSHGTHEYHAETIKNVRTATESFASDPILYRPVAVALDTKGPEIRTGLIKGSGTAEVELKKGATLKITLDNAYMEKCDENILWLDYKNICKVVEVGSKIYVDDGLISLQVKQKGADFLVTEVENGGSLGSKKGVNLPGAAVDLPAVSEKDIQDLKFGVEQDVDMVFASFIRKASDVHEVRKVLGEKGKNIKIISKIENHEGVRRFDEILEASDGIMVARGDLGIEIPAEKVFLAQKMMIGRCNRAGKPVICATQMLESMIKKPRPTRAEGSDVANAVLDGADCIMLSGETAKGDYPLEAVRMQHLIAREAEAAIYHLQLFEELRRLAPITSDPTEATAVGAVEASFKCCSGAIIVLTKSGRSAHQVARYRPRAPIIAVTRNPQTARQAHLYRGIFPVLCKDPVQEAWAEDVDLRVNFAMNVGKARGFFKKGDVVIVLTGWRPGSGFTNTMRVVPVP
Assay: qHTS Assay for Inhibitors of Human Muscle isoform 2 Pyruvate Kinase; further: nearly all actives have a fitted effect of over 60% in size
Conditions: purified PKM2, ATP generation, Kinase-Glo luminescence; series mostly up to 57.5 µM
Protocol: NIH Chemical Genomics Center [NCGC] Matthew G. Vander Heiden, M.D., Ph.D. [Harvard Medical School, 77 Avenue Louis Pasteur, Boston, MA 02115] […] ATP generation was detected in a coupled reaction by luciferase-mediated luminescence, an ATP-dependent process. […] The enzyme was assayed at an intermediate level of activity to screen for both inhibitors and activators. […]
Among all 260,000 compounds or so, about 150 (0.058%) were called active. The call rests on the fitted dose curve; in most records, active means well fitted inhibition curve with a large enough effect; inconclusive means small, poorly fitted or top-dose-only effect; inactive means no such curve, though single readings can be large or run the other way. The entries come from a sample that favours actives as a whole.
Outcomes: active, inactive

{"columns": ["compound", "targetOfAssay", "classAssignment"],
 "data": [
  ["COc1ccc(-c2nnn(CC(=O)N(CCO)C(C(=O)NC3CCCC3)c3ccc(F)cc3)n2)cc1 (configuration not stated)", "Pyruvate kinase PKM (Homo sapiens) (UniProt P14618)", "inactive"],
  ["COc1ccc(-n2c(SCC(=O)NCc3cccs3)nnc2-c2ccoc2C)cc1", "Pyruvate kinase PKM (Homo sapiens) (UniProt P14618)", "inactive"],
  ["COc1ccc(C(=O)/C=C/Nc2ccccn2)cc1", "Pyruvate kinase PKM (Homo sapiens) (UniProt P14618)", "active"],
  ["COc1cccc(/C=N\\NC(=O)C2=NNC(=O)C2C)c1O (configuration not stated)", "Pyruvate kinase PKM (Homo sapiens) (UniProt P14618)", "active"],
  ["CCn1c(SCC(=O)N/N=C/C=C/c2ccccc2[N+](=O)[O-])nnc1-c1ccccc1", "Pyruvate kinase PKM (Homo sapiens) (UniProt P14618)", "inactive"],
  ["O=c1cc(CO)oc(C(Nc2cccc([N+](=O)[O-])c2)c2ccccn2)c1O (configuration not stated)", "Pyruvate kinase PKM (Homo sapiens) (UniProt P14618)", "inactive"],
  ["Cc1cnc(C(=O)N2CCCC(C(=O)c3ccc(C(F)(F)F)cc3)C2)cn1 (configuration not stated)", "Pyruvate kinase PKM (Homo sapiens) (UniProt P14618)", "inactive"],
  ["Cc1ccc(-c2nc(SCC(=O)Nc3ccccc3OC(F)F)c3c(C)c(C(=O)O)sc3n2)cc1", "Pyruvate kinase PKM (Homo sapiens) (UniProt P14618)", "inactive"],
  ["Cc1ccc(C)c(S(=O)(=O)Nc2cccc(-n3cnnn3)c2)c1", "Pyruvate kinase PKM (Homo sapiens) (UniProt P14618)", "inactive"],
  ["COc1ccc2[nH]c3c(=O)n(Cc4ccco4)cnc3c2c1", "Pyruvate kinase PKM (Homo sapiens) (UniProt P14618)", "inactive"],
  ["N/C(=N\\S(=O)(=O)c1cc(C(F)(F)F)cc(C(F)(F)F)c1)c1cccs1", "Pyruvate kinase PKM (Homo sapiens) (UniProt P14618)", "inactive"],
  ["COc1ccc(C(=O)NC(=S)Nc2ccc(Cl)cn2)cc1OC", "Pyruvate kinase PKM (Homo sapiens) (UniProt P14618)", "inactive"],
  ["Cc1coc2c(O)cc3c(c12)OC1(N2CCCCC2)C(=O)NCCCC31 (configuration not stated)", "Pyruvate kinase PKM (Homo sapiens) (UniProt P14618)", "inactive"],
  ["COc1cccc(Nc2ncccc2C(=O)O)c1", "Pyruvate kinase PKM (Homo sapiens) (UniProt P14618)", "inactive"],
  ["O=C(NCc1cccs1)C1CCN(S(=O)(=O)c2ccc3c(c2)OCCO3)CC1", "Pyruvate kinase PKM (Homo sapiens) (UniProt P14618)", "inactive"],
  ["Cc1ccc(NC(=O)OCCNC(=O)c2ccncc2)cc1", "Pyruvate kinase PKM (Homo sapiens) (UniProt P14618)", "inactive"],
  ["O=C(CSc1nnc(-c2ccc(NS(=O)(=O)c3ccccc3)cc2)o1)NCC1CCCO1 (configuration not stated)", "Pyruvate kinase PKM (Homo sapiens) (UniProt P14618)", "inactive"],
  ["Cc1cc(NC(=O)CSc2nnc(-c3ccc(Cl)s3)o2)no1", "Pyruvate kinase PKM (Homo sapiens) (UniProt P14618)", "inactive"],
  ["O=C(COc1ccccc1[N+](=O)[O-])N/N=C/c1ccc[nH]1", "Pyruvate kinase PKM (Homo sapiens) (UniProt P14618)", "inactive"],
  ["CNC(=O)COc1ccc(S(=O)(=O)Nc2ccccc2)cc1", "Pyruvate kinase PKM (Homo sapiens) (UniProt P14618)", "inactive"],
  ["CCc1nnc(NC(=O)CSc2nc3c(c(=O)n2-c2ccccc2OC)SCC3)s1", "Pyruvate kinase PKM (Homo sapiens) (UniProt P14618)", "inactive"],
  ["Cc1noc(C)c1C(=O)OCC(=O)N1CCN(S(=O)(=O)c2ccc3ccccc3c2)CC1", "Pyruvate kinase PKM (Homo sapiens) (UniProt P14618)", "inactive"]
]}
